Assign pKi to each entry below.
Study target: serotonin transporter (Rattus norvegicus)
Construct: from tissue; host or cells: frontal cortex membranes of male Sprague-Dawley rats
Protocol description: Displacement of specifically bound 3H-paroxetine from rat cortical membranes (affinity for the serotonin transporter)
Type: binding
One number for each entry, as −log10 of the molar value.

| Compound string | Study target | pKi |
| --- | --- | --- |
| COc1ccccc1N1CCN(CCN2CC=C(c3c[nH]c4ccc(F)cc34)CC2)CC1 | serotonin transporter (Rattus norvegicus) | 7.72 |

--- query ---
Req: What value of pKi has been reported for the following compound? "COc1ccccc1N1CCN(CCN2CC=C(c3c[nH]c4ccccc34)CC2)CC1"
Resp: 8.00

* * *

Study target: serotonin transporter (Rattus norvegicus, UniProt P31652)
Construct: from tissue; host or cells: frontal cortex membranes of male Sprague-Dawley rats
Sequence (P31652 whole entry): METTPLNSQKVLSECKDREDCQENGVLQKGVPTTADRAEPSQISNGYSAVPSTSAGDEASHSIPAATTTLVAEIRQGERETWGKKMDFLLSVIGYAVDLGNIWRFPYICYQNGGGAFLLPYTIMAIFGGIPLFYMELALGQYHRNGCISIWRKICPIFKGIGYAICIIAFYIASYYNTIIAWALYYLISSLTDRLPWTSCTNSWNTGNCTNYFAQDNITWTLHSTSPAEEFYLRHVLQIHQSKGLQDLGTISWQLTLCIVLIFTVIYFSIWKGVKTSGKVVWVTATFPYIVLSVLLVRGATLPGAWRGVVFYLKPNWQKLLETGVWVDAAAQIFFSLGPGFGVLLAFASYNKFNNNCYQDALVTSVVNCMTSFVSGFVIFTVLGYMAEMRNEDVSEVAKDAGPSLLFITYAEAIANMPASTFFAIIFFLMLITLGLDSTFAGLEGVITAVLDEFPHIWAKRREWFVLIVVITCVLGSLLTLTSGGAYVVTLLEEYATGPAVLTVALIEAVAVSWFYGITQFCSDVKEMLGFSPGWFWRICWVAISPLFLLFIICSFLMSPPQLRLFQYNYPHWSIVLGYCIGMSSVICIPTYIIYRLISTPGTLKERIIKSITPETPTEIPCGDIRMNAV
Protocol description: Displacement of specifically bound 3H-paroxetine from rat cortical membranes (affinity for the serotonin transporter)
Assay type: binding
Run parameters: compounds of formula 1; frontal cortical membranes from male S.D. rats; 3H-paroxetine 0.1 nM, 60 min at 25°C; Ki from IC50 by Cheng and Prusoff; read-out: Inhibition of [3H]-Paroxetine binding Ki
Assign Ki to each entry below.
Give bare numbers, in nM.

| Compound string | Study target | Unit abbreviation | Test value |
| --- | --- | --- | --- |
| COc1ccccc1N1CCN(CCCN2CCC(Cc3c[nH]c4ccc(F)cc34)CC2)CC1 | serotonin transporter (Rattus norvegicus, UniProt P31652) | nM | 1.2 |

--- query ---
Req: What value of Ki has been reported for the following compound? "COc1ccccc1N1CCN(CCN2CCC(Cc3c[nH]c4ccc(F)cc34)CC2)CC1"
Resp: 4.8
